- experimental system: T1, full-length wt-AR (VP16 fusion) (human, UniProt P10275 1-920)
- T1 sequence (looked up): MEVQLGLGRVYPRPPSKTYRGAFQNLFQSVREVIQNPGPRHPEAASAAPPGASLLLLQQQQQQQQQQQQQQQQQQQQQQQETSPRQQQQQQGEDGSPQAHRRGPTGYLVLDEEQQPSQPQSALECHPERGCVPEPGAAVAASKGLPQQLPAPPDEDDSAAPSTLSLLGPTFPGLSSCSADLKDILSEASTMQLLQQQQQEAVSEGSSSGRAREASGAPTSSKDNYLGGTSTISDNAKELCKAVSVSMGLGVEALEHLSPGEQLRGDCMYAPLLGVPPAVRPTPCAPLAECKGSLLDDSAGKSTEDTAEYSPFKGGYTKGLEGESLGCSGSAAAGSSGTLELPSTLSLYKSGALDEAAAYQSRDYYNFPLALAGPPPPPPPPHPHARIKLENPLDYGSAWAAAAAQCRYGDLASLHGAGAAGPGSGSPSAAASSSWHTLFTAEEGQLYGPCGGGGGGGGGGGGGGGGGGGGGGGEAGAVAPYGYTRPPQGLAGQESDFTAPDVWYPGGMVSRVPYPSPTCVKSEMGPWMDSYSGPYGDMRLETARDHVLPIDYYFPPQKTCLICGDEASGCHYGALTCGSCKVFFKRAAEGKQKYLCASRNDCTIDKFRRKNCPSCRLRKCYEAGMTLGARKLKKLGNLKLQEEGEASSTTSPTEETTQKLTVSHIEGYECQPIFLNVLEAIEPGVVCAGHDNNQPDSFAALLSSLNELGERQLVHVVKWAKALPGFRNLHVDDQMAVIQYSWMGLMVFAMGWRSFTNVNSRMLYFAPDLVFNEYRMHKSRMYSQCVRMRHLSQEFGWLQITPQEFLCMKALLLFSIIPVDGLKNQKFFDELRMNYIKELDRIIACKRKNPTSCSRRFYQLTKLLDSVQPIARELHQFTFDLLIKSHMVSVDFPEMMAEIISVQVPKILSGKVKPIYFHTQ
- assay: two-hybrid
Please respond with reported two-hybrid reporter activity (Gal-4 = 1) for every item in the list.
Give bare numbers.

Example entries and their recorded answers appear below.
binder: STFESLYNNMTA [C33 (Gal-4 fusion)]
two-hybrid reporter activity (Gal-4 = 1): 1330
--
binder: SPFEEHYLSTQS [B34 (Gal-4 fusion)]
two-hybrid reporter activity (Gal-4 = 1): 42
--
binder: RGAFQNLFQSV [ARN20 (Gal-4 fusion)]
two-hybrid reporter activity (Gal-4 = 1): 1310
--
binder: NTTDTLFSQHYR [B32 (Gal-4 fusion)]
two-hybrid reporter activity (Gal-4 = 1): 41

For each of the items listed, what is its two-hybrid reporter activity (Gal-4 = 1)?
1. DSQYSSFSRYYK [A47 (Gal-4 fusion)]
2. TEPPAAFRQLFF [C317 (Gal-4 fusion)]

21
6600

For each of the items listed, what is its two-hybrid reporter activity (Gal-4 = 1)?
1. KTRYIFDLFYKRKAY [BUD31 peptide (Gal-4 fusion)]
2. SKFSQLYSYEPP [B49 (Gal-4 fusion)]
3. VLPGSTFERFYR [A49 (Gal-4 fusion)]
4. HPTHSSRLWELLMEATPTM [D30 (Gal-4 fusion)]
5. EASNSSFARLFH [B426 (Gal-4 fusion)]
6. SSGGFERFYIAQ [A41 (Gal-4 fusion)]
7. ANSSFRDWYTSS [B46 (Gal-4 fusion)]

1. 8940
2. 1790
3. 25
4. 19900
5. 13500
6. 4310
7. 792

Value source: paper PMC4253602
